# Test system: OVCAR-5 ovarian
# assay-procedure: NCI-60 one-dose screen, 48 h (100 = growth as untreated, 0 = no growth, -100 = all killed)
# applied-conditions: 10 µM unless noted
This is part of a sample that, as a whole, favours compounds with a hit. Of some 83,000 tested, about 20% had one in any assay.
measure-name: growth (%)
Number only, in %; omit the unit.

See these solved cases before continuing.
| compound | growth / % |
| --- | --- |
| COc1cc(C2CC(c3ccccc3)=NN2C=O)ccc1Oc1ccnc2cc(Cl)ccc12 (stereo not given) | 84.2 |
| COC(=O)C(Br)(C(=O)OC)C(Br)C(Br)C(Br)c1ccccc1 (stereo not given) | 126 |
| CCCCCCCC/C=C\CCCCCCCC(=O)OCCCCCC | 117 |

IN: Output growth of CC1=CCC2C1CC=C(C)C(CC[C@H]1[C@@](C)(O)CCC3OC(C)(C)[C@H](OC(=O)c4ccccc4)CC[C@@]31C)C2(C)C (stereo not given in full)
OUT: 100

IN: Output growth of COC(=O)[C@@H](Cc1c[nH]c2ccccc12)NC(=O)/C=C/c1ccccc1
OUT: 36

IN: Output growth of OCCN(CCO)c1ccc2ccccc2c1
OUT: 98.8

IN: Output growth of O=C(C(=O)N1CCCC1)c1cn(CCCn2cc(C(=O)C(=O)N3CCCC3)c3cc(Br)ccc32)c2ccc(Br)cc12
OUT: 94.7

IN: Output growth of O=C(O/C(=C/c1ccccc1)C(F)(F)F)c1ccccc1
OUT: 101

Reference for the values: PubChem BioAssay (NCI)
